Data provenance is patent US10040781B2.

# ASSAYED_SYSTEM: TBK1 (Homo sapiens (Human))
# Sequence (Q9UHD2 whole entry): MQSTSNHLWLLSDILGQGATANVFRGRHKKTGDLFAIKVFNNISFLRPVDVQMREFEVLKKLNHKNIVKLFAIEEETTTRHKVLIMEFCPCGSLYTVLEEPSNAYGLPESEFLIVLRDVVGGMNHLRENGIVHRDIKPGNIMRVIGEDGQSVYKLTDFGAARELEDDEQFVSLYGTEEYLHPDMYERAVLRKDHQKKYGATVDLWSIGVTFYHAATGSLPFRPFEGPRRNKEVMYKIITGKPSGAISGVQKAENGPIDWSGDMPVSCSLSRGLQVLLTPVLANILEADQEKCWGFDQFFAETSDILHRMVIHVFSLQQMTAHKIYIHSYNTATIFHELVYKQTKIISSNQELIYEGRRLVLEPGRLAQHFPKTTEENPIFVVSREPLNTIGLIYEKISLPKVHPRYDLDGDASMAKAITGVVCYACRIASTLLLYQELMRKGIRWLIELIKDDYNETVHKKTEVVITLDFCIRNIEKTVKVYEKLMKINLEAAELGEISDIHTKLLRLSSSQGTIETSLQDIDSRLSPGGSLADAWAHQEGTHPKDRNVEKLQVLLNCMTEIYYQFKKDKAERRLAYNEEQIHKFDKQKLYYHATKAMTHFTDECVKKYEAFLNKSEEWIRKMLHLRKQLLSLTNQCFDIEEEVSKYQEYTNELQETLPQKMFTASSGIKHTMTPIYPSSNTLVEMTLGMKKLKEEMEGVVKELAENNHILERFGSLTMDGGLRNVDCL
# ASSAY_NAME: TBK1 TR-FRET enzymatic assay;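 note: phosphorylation of a biotinylated Ser/Thr peptide by purified full-length recombinant TBK1, read by TR-FRET after 240 min at 25 °C, IC50 is the geometric mean of at least four runs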
MEASURE_NAME: IC50 (nM)

N#Cc1cc(-c2ncnc(Nc3ccc(C4CCN(C5COC5)CC4)cc3)n2)ccc1OC1CCN(C(=O)CO)CC1 [Example 56] | 2

[A] CN1CCC(c2ccc(Nc3ncnc(-c4ccc(O[C@H]5CCOC[C@H]5F)c(C#N)c4)n3)cc2)CC1 [Example 300]
[B] C[C@H]1C[C@@H](Oc2ccc(-c3ncnc(Nc4ccc(N5CCN(C6COC6)CC5)cc4)n3)cc2C#N)CCN1C(=O)CO [Example 169]
[C] N#Cc1cc(-c2ncnc(Nc3ccc(N4CCN(C5COC5)CC4)cc3)n2)ccc1O[C@H]1CCN(C(=O)CO)C[C@H]1C(F)(F)F (relative stereo) [Example 439]
Task: Ordering: ascending IC50. Please list each label once, in the requested order.
Result: B, A, C
(B: 2 nM, A: 4 nM, C: 9 nM)
